- study_system: Glutamate carboxypeptidase 2 (Homo sapiens)
- Sequence (Q04609 whole entry): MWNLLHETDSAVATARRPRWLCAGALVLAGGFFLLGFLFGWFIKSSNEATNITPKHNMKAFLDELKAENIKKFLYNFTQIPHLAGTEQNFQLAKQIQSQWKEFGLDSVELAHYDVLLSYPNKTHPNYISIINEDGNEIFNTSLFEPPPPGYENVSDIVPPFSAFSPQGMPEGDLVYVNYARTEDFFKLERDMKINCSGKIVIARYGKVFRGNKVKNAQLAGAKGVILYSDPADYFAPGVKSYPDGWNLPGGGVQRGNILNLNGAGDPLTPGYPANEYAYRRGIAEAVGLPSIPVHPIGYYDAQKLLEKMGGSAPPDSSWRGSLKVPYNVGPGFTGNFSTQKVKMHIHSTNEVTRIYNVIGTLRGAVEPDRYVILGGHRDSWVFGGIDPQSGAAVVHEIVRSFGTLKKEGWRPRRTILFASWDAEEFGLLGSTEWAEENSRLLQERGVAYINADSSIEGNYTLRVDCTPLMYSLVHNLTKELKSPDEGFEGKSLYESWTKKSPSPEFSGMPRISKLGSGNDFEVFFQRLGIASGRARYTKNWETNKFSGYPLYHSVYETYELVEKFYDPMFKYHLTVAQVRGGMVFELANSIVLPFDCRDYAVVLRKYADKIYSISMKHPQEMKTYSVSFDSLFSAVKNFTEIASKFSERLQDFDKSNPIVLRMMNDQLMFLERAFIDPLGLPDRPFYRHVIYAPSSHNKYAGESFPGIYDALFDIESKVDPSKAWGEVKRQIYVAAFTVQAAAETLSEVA
- test_summary: Inhibition of recombinant human PSMA using [3H]NAAG as substrate preincubated for 15 mins followed by substrate addition measured after 20 mins by liquid scintillation method
Decision: IC50 beneath 1 nM gives Y; IC50 meeting or exceeding 1 nM gives N.

IC50 under 1 nM? Item: C[C@@H](NC(=O)CCC[C@H](NC(=O)N[C@@H](CCC(=O)O)C(=O)O)C(=O)O)c1ccc(F)cc1
N

IC50 under 1 nM? Item: O=C(O)CC[C@H](NC(=O)N[C@@H](CCCC(=O)Nc1cccc(F)c1)C(=O)O)C(=O)O
Y

IC50 under 1 nM? Item: O=C(O)CC[C@H](NC(=O)N[C@@H](CCCC(=O)NCCNC(=O)c1ccc(F)nc1)C(=O)O)C(=O)O
N

IC50 under 1 nM? Item: O=C(O)CC[C@H](NC(=O)N[C@@H](CCCC(=O)NCc1ccc(F)cc1)C(=O)O)C(=O)O
N

IC50 under 1 nM? Item: O=C(O)CC[C@H](NC(=O)N[C@@H](CCCC(=O)NCCNC(=O)c1ccc(F)cc1)C(=O)O)C(=O)O
Y

IC50 under 1 nM? Item: O=C(O)CC[C@H](NC(=O)N[C@@H](CCCC(=O)NCc1cccc(F)c1)C(=O)O)C(=O)O
N

IC50 under 1 nM? Item: CN(Cc1cccc(F)c1)C(=O)CCC[C@H](NC(=O)N[C@@H](CCC(=O)O)C(=O)O)C(=O)O
Y

IC50 under 1 nM? Item: C[C@H](NC(=O)CCC[C@H](NC(=O)N[C@@H](CCC(=O)O)C(=O)O)C(=O)O)c1ccc(F)cc1
N

IC50 under 1 nM? Item: O=C(O)CC[C@H](NC(=O)N[C@@H](CCCC(=O)NC(c1ccc(F)cc1)c1ccc(F)cc1)C(=O)O)C(=O)O
N

IC50 under 1 nM? Item: CN(C(=O)CCC[C@H](NC(=O)N[C@@H](CCC(=O)O)C(=O)O)C(=O)O)c1ccc(F)cc1
Y

Ref: ChEMBL document CHEMBL4266058
